studySystem: thrombin receptor (PAR-1) (Homo sapiens)
Construct: CHRF membranes (Jones, Biochim. Biophys. Acta 1992, 1136, 272) are thawed from −70° C; endogenous in cells
measurementDescription: In vitro thrombin receptor binding assay (CHRF membranes)
conditionsUsed: tritiated 721-40 radioligand, read-out: Bndg IC50 (Thrombin receptor binding)
observable: IC50 (nM)
Only the number, expressed in nM, is required.

>  <structureSmilesString>
NCC[C@H](NC(=O)[C@H](Cc1ccc(F)c(F)c1)NC(=O)Nc1ccc2c(CN3CCCC3)cn(Cc3c(Cl)cccc3Cl)c2c1)C(=O)NCCc1c[nH]cn1

>  <measurementUnit>
nM

>  <measuredResult>
480

$$$$
>  <structureSmilesString>
O=C(Nc1ccc2c(CN3CCCC3)cn(Cc3c(Cl)cccc3Cl)c2c1)N[C@@H](Cc1ccc(F)c(F)c1)C(=O)N[C@@H](Cc1ccncc1)C(=O)NCc1ccccc1

>  <measurementUnit>
nM

>  <measuredResult>
7500

$$$$

The reported IC50 of the molecule N=C(N)NCCC[C@H](NC(=O)[C@H](Cc1cccc(F)c1)NC(=O)Nc1ccc2c(CN3CCCC3)cn(Cc3c(Cl)cccc3Cl)c2c1)C(=O)NCc1ccccc1 was 1200

The reported IC50 of the molecule N=C(N)NCCC[C@H](NC(=O)[C@H](Cc1ccc(F)c(F)c1)NC(=O)Nc1ccc2c(CN3CCCC3)c(-c3ccccc3)n(Cc3ccc(F)cc3)c2c1)C(=O)NCc1ccc(F)cc1 was 100

The reported IC50 of the molecule NCCNC(=O)[C@@H](Cc1ccncc1)NC(=O)[C@@H](Cc1ccc(F)c(F)c1)NC(=O)c1ccc2c(CN3CCCC3)cn(Cc3c(Cl)cccc3Cl)c2c1 was 43200

----------
Entries and their measured IC50 follow.
System: gel-filtered platelets
measurementDescription: In vitro inhibition of thrombin-induced gel-filtered platelet aggregation
Format: cell-based
conditionsUsed: Platelet; human gel-filtered platelets; agonist thrombin 50 μL of 1 unit/mL; read-out: Thrmb IC50 (Thrombin-induced aggregation of gel-filtered platelets)
Only the number, expressed in nM, is required.

Study these solved cases before continuing.
>  <structureSmilesString>
NCCNC(=O)[C@H](Cc1cccc(F)c1)NC(=O)[C@H](Cc1ccc(F)c(F)c1)NC(=O)Nc1ccc2c(CN3CCCC3)cn(Cc3c(Cl)cccc3Cl)c2c1

>  <studySystem>
gel-filtered platelets

>  <IC50 / nM>
330

$$$$
>  <structureSmilesString>
O=C(Nc1ccc2c(CN3CCCC3)cn(Cc3c(Cl)cccc3Cl)c2c1)N[C@@H](Cc1ccc(F)c(F)c1)C(=O)N[C@@H](Cc1c[nH]cn1)C(=O)NCc1ccccc1

>  <studySystem>
gel-filtered platelets

>  <IC50 / nM>
460

$$$$

The reported IC50 of the molecule COc1ccc(C[C@H](NC(=O)Nc2ccc3c(CN4CCCC4)cn(Cc4ccc(F)c(F)c4)c3c2)C(=O)N[C@@H](CCCNC(=N)N)C(=O)NCc2ccccc2)cc1 was 3200

----------
studySystem: thrombin receptor (PAR-1) (Homo sapiens)
Construct: CHRF membranes (Jones, Biochim. Biophys. Acta 1992, 1136, 272) are thawed from −70° C; endogenous in cells
measurementDescription: In vitro thrombin receptor binding assay (CHRF membranes)
conditionsUsed: tritiated 721-40 radioligand, read-out: Bndg IC50 (Thrombin receptor binding)
Procedure: In Vitro Thrombin Receptor Binding Assay CHRF membranes (Jones, Biochim. Biophys. Acta 1992, 1136, 272) are thawed from −70° C., centrifuged at maximum speed for 5 min, washed twice with binding buffer (50 mM HEPES containing 5 mM MgCl2 and 0.1% BSA), and re-suspended in binding buffer (25 μg/[…]). 100 μL of membranes are added to the 24-Wallac plates and delivered to the Tomtech apparatus. […] The bags are sealed, placed in filter cassettes (Wallac 1450-104), and analyzed on the microbeta counter. […]
Entries and their measured IC50 follow.

>  <structureSmilesString>
COc1ccc(C[C@H](NC(=O)Nc2ccc3c(CN4CCCC4)cn(Cc4ccc(S(C)(=O)=O)cc4)c3c2)C(=O)N[C@@H](CCCNC(=N)N)C(=O)NCc2ccccc2)cc1

>  <IC50>
15900 nM

$$$$

The reported IC50 of the molecule NCCCNC(=O)[C@H](Cc1ccncc1)NC(=O)[C@H](Cc1ccc(Cl)cc1)NC(=O)Nc1ccc2c(CN3CCCC3)cn(Cc3c(Cl)cccc3Cl)c2c1 was 500 nM

The reported IC50 of the molecule NCCNC(=O)CCNC(=O)[C@H](Cc1ccc(Cl)cc1)NC(=O)Nc1ccc2c(CN3CCCC3)cn(Cc3c(Cl)cccc3Cl)c2c1 was 2800 nM

The reported IC50 of the molecule NCC[C@H](NC(=O)[C@H](Cc1ccc2ccccc2c1)NC(=O)Nc1ccc2c(CN3CCCC3)cn(Cc3c(Cl)cccc3Cl)c2c1)C(=O)NCc1ccccc1 was 2500 nM

The reported IC50 of the molecule CC(C)NCCCC[C@H](NC(=O)[C@H](Cc1ccc(F)c(F)c1)NC(=O)Nc1ccc2c(CN3CCCCC3)cn(Cc3c(Cl)cccc3Cl)c2c1)C(=O)NCc1ccccc1 was 450 nM

----------
studySystem: thrombin receptor (PAR-1) (Homo sapiens)
Construct: CHRF membranes (Jones, Biochim. Biophys. Acta 1992, 1136, 272) are thawed from −70° C; endogenous in cells
measurementDescription: In vitro thrombin receptor binding assay (CHRF membranes)
conditionsUsed: tritiated 721-40 radioligand, read-out: Bndg IC50 (Thrombin receptor binding)
observable: IC50
Answer with the figure and its unit, nothing else.

Study these solved cases before continuing.
>  <structureSmilesString>
N=C(N)NCCC[C@H](NC(=O)[C@H](Cc1ccncc1)NC(=O)Nc1ccc2c(CN3CCCC3)cn(Cc3ccc(F)cc3)c2c1)C(=O)NCc1ccccc1

>  <IC50>
4800 nM

$$$$
>  <structureSmilesString>
CC(=N)NCCNC(=O)[C@H](Cc1ccncc1)NC(=O)[C@H](Cc1ccc(Cl)cc1)NC(=O)Nc1ccc2c(CN3CCCC3)cn(Cc3c(Cl)cccc3Cl)c2c1

>  <IC50>
1000 nM

$$$$
>  <structureSmilesString>
NCC[C@H](NC(=O)[C@H](Cc1ccc(Cl)cc1)NC(=O)Nc1ccc2c(CN3CCCC3)cn(Cc3c(Cl)cccc3Cl)c2c1)C(=O)NCc1ccccc1

>  <IC50>
1500 nM

$$$$
>  <structureSmilesString>
COC[C@H]1CCCN1Cc1cn(Cc2cc(Cl)nc(Cl)c2)c2cc(NC(=O)N[C@@H](Cc3cccc(F)c3)C(=O)N[C@@H](CCCNC(=N)N)C(=O)NCc3ccccc3)ccc12

>  <IC50>
4000 nM

$$$$
>  <structureSmilesString>
N=C(N)NCCC[C@H](NC(=O)[C@H](Cc1cscn1)NC(=O)Nc1ccc2c(CN3CCCC3)cn(Cc3c(Cl)cccc3Cl)c2c1)C(=O)NCc1ccccc1

>  <IC50>
8800 nM

$$$$
>  <structureSmilesString>
Cc1ccccc1Cn1c(Cl)c(CN2CCCC2)c2ccc(NC(=O)N[C@@H](Cc3cccc(F)c3)C(=O)N[C@@H](CCCN=C(N)N)C(=O)NCc3ccc(F)cc3)cc21

>  <IC50>
760 nM

$$$$
>  <structureSmilesString>
Cn1cnc(CCNC(=O)[C@H](CCCN)NC(=O)[C@H](Cc2ccc(F)c(F)c2)NC(=O)Nc2ccc3c(CN4CCCC4)cn(Cc4c(Cl)cccc4Cl)c3c2)c1

>  <IC50>
1200 nM

$$$$
>  <structureSmilesString>
COc1ccc(C[C@H](NC(=O)Nc2ccc3c(CN4CCCC4)cn(Cc4ccc(C(F)(F)F)cc4)c3c2)C(=O)N[C@@H](CCCNC(=N)N)C(=O)NCc2ccccc2)cc1

>  <IC50>
3700 nM

$$$$

The reported IC50 of the compound CCSC[C@H](NC(=O)[C@H](Cc1ccc(Cl)cc1)NC(=O)Nc1ccc2c(CN3CCCC3)cn(Cc3c(Cl)cccc3Cl)c2c1)C(=O)NCCN was 150 nM

The reported IC50 of the compound C=CCOC(=O)[C@H](CCCN)NC(=O)[C@H](Cc1ccc(F)c(F)c1)NC(=O)Nc1ccc2c(CN3CCCC3)cn(Cc3c(Cl)cccc3Cl)c2c1 was 500 nM

The reported IC50 of the compound COc1ccc(C[C@H](NC(=O)Nc2ccc3c(CNC4CC4)cn(Cc4ccc(F)cc4)c3c2)C(=O)N[C@@H](CCCNC(=N)N)C(=O)NCc2ccccc2)cc1 was 13900 nM

----------
studySystem: thrombin receptor (PAR-1) (Homo sapiens, UniProt P25116)
Construct: CHRF membranes (Jones, Biochim. Biophys. Acta 1992, 1136, 272) are thawed from −70° C; endogenous in cells
Sequence (P25116 22-425): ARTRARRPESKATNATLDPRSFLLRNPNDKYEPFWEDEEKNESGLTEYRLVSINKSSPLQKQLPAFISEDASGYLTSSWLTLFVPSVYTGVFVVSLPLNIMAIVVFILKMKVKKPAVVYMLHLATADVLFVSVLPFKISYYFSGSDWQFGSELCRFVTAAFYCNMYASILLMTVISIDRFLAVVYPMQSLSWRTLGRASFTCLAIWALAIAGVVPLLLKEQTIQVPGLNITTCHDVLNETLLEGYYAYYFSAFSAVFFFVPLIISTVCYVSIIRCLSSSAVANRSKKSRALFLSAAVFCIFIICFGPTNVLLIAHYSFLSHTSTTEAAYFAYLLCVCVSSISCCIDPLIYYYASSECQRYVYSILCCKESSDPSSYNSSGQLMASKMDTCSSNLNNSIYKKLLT
measurementDescription: In vitro thrombin receptor binding assay (CHRF membranes)
conditionsUsed: tritiated 721-40 radioligand, read-out: Bndg IC50 (Thrombin receptor binding)
Each record is given Y if its reported IC50 is strictly below 4 µM. Records at or above 4 µM are given N.

Solved entries:
>  <structureSmilesString>
Cc1ccccc1Cn1cc(CN2CCCC2)c2ccc(NC(=O)N[C@@H](Cc3cccc4ccccc34)C(=O)N[C@@H](CCCNC(=N)N)C(=O)NCc3ccccc3)cc21

>  <group>
N

$$$$
>  <structureSmilesString>
COc1ccc(C[C@H](NC(=O)Nc2ccc3c(CN4CCCC4)cn(Cc4ccc5ccccc5c4)c3c2)C(=O)N[C@@H](CCCNC(=N)N)C(=O)NCc2ccccc2)cc1

>  <group>
N

$$$$
>  <structureSmilesString>
N#Cc1ccc(C[C@H](NC(=O)Nc2ccc3c(CN4CCCC4)cn(Cc4c(Cl)cccc4Cl)c3c2)C(=O)N[C@@H](CCCNC(=N)N)C(=O)NCc2ccccc2)cc1

>  <group>
N

$$$$
>  <structureSmilesString>
CCN(CC)Cc1cn(Cc2ccccc2C)c2cc(NC(=O)N[C@@H](Cc3ccc(N)cc3)C(=O)N[C@@H](CCCNC(=N)N)C(=O)NCc3ccccc3)ccc12

>  <group>
N

$$$$

Here's the next entry for you.
Prompt: Please state whether IC50 is below 4 µM for NCC[C@H](NC(=O)[C@H](CCc1ccccc1)NC(=O)Nc1ccc2c(CN3CCCC3)cn(Cc3c(Cl)cccc3Cl)c2c1)C(=O)NCc1ccccc1
Completion: Y
